- Tested on: Control peptide
- EXPERIMENTAL DETAILS: Antibody specificity by ELISA
- PROTOCOL CONDITIONS: ELISA binding, irrelevant peptide
- Excerpt: To further characterize anti-hEGFRvIII mAbs, their binding specificity was examined by ELISA. […] The plates were then washed and bound anti-EGFRvIII mAbs were detected with anti-human Fc antibodies conjugated with horse-radish peroxidase (HRP). Plates were developed with a tetra-methyl-benzidine (TMB) substrate solution to produce a colorimetric reaction and neutralized with sulfuric acid before reading absorbance at 450 nm on a VICTOR™ X5 plate reader. […]
pEC50: −log10 of the molar value.
MEASURED PARAMETER: pEC50

| MOLECULE | RECORDED RESULT |
| --- | --- |
| H1H1915N: human IgG1 Fc anti-EGFRvIII antibody with variable domains 1915; HCVR/LCVR SEQ ID NOs 82/90 (antibody, V domains shown, human IgG1 Fc) VH: QVQLVESGGGVVQPGRSLRLSCAASGFTFSAYAMHWVRQAPGKGLEWVAVIWYDGSNKNYADSVKGRFTVSRDNSKNTLYLEMNSLRAEDTAVYYCARDLMVGVTNYWGQGTLVTVST VL: DVVMTQSPLSLPVALGQPASISCRSSQSLVYTDGNTYLNWFHQRPGQSPRRLIYKVSNRDSGVPDRFTGSGSGTDFTLKISRVEAEDVGVFYCMQGSHWPPYTFGQGTKLEIK | < 8.00 |
